Data provenance: ChEMBL document CHEMBL4145525

# System: Plasmodium falciparum
# ASSAY_OVERVIEW: Antiplasmodial activity against erythrocytic stage of Plasmodium falciparum NF54 assessed as reduction in [3H]hypoxanthine incorporation after 48 hrs by liquid scintillation counting method
# Assay type: functional, organism-based
METRIC_NAME: pIC50
Answers are plain numbers, as −log10 of the molar value.

1) COc1cc(NC(C)CCCNC(=O)/C=C/c2ccc(Cl)cc2)c2ncccc2c1 (stereo not given): 4.86

For each of the items listed, what is its pIC50?
1. COc1cc(NC(C)CCCNC(=O)/C=C/c2ccccc2F)c2ncccc2c1 (stereo not given)
2. COc1cc(NC(C)CCCNC(=O)NNC(=O)Nc2ccc(C(F)(F)F)cc2)c2ncccc2c1 (stereo not given)
3. COc1cc(NC(C)CCCNC(=O)Nc2cc(C(F)(F)F)cc(C(F)(F)F)c2)c2ncccc2c1 (stereo not given)
4. COc1cc(NC(C)CCCNC(=O)/C=C/c2cc(C(F)(F)F)cc(C(F)(F)F)c2)c2ncccc2c1 (stereo not given)

1. 4.88
2. 4.99
3. 4.92
4. 4.95

For each of the items listed, what is its pIC50?
1. COc1ccc(/C=C/C(=O)NCCCC(C)Nc2cc(OC)cc3cccnc23)cc1 (stereo not given)
2. COc1cc(NC(C)CCCNC(=O)NNC(=O)N(C)C(c2ccccc2)c2ccccc2)c2ncccc2c1 (stereo not given)
3. COc1cc(NC(C)CCCNC(=O)/C=C/c2cc(OC)c(OC)c(OC)c2)c2ncccc2c1 (stereo not given)

4.91
5.00
5.09
